# MEASURED_TARGET: EcTrpRS (Escherichia coli, UniProt P00954)
# Construct: gene trpS; full-length (domains span residues 1-334), C-terminal His6 tag, pET20b(+), E. coli BL21(DE3); homodimer, as purified carries one copurified TrpAMP per dimer
# TEST_DESCRIPTION: ITC, one-site model
# Type: binding
VALUE_KIND: Kd (µM)
Quick note: give the figure in µM, leave out the unit.

Reported Kd for Nc1ncnc2c1ncn2[C@@H]1O[C@H](COP(=O)(O)OP(=O)(O)OP(=O)(O)O)[C@@H](O)[C@H]1O [ATP] : what is it?
305
